# assay-target: CYP2C19 (Homo sapiens, UniProt P33261)
# Sequence (P33261 whole entry): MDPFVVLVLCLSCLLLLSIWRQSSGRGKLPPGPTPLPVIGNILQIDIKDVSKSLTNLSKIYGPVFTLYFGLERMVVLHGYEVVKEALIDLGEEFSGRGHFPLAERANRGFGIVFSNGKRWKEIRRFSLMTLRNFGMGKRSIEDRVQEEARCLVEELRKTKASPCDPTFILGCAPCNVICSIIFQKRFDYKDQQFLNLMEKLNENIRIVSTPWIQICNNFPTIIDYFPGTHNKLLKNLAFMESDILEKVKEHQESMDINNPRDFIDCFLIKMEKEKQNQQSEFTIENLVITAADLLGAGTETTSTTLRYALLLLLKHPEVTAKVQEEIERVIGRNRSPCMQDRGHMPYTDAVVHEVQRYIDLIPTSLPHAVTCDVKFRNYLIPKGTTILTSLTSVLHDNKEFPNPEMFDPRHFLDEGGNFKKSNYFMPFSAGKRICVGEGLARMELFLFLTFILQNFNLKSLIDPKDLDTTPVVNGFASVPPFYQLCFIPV
# protocol-description: CYP inhibition CYP2C19 (CEREP)
# Type: in vitro ADME
# test-context: human, recombinant CYP2C19, probe 3-cyano-7-ethoxycoumarin, single concentration (typically 10 μM), read-out: CYP 2C19 (% inhibition of Control)
reported-property: inhibition at 10 µM (%)

Before answering, review these 2 worked examples.
Cc1ccc(C(NC(=O)Cc2ccc3[nH]cc(CCC(=O)O)c3c2)c2ccccc2)c(N2CCCC2)c1 (stereo not shown); 25
COc1ccc(C(NC(=O)Cc2ccc3[nH]cc(CCC(=O)O)c3c2)c2ccccc2)c(N2CCCCC2)c1 (stereo not shown); 29.4

(I) O=C(O)CCc1c[nH]c2ccc(CC(=O)NC(c3ccccc3)c3ccc(Br)cc3N3CCCC3)cc12 (stereo not shown)
(II) Cc1ccc(C(NC(=O)Cc2ccc3oc(C(O)c4c(C)noc4C)cc3c2)c2ccccc2)c(C)c1 (single isomer, unassigned) [Cpd. T-4, reference compound]
Query: Please indicate which has the smaller reported inhibition at 10 µM: I , or II . Write the label of whichever entry you select.
Result: I

* * *

Let's look at some compounds and their measured IC50.
# assay-target: human RORγt (Homo sapiens, UniProt P51449)
# Sequence (P51449 1-497 isoform P51449-2): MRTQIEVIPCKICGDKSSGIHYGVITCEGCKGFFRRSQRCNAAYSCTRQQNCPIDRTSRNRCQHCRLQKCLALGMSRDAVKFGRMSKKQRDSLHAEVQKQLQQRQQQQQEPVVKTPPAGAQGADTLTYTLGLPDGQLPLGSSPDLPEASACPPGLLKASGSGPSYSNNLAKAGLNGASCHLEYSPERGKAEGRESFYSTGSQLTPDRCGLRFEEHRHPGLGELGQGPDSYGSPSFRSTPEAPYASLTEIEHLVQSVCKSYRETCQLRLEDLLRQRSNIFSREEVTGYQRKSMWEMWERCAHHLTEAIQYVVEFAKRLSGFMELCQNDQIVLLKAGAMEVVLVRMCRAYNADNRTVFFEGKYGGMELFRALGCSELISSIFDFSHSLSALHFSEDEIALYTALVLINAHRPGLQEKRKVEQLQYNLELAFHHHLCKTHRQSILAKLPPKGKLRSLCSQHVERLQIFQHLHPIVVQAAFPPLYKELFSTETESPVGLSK
# protocol-description: RORE luciferase/RORγt transactivation assay
# Format: cell-based
# Design: expressed in transfected cells
# test-context: COS-7 cells transfected with IL-17 promoter luciferase reporter and RORγt plasmid, 20 h

CC(C)CC(NC(=O)Cc1ccc2[nH]cc(CCC(=O)O)c2c1)c1ccccc1N1CCCCC1 (centres unmarked) [Cpd. 29]; < 1000 nM
Cc1ccc(C(NC(=O)Cc2ccc3[nH]cc(CCC(=O)O)c3c2)c2ccc(C)o2)c(N2CCCCC2)c1 (centres unmarked) [compound 268]; < 1000 nM
Cc1ccc(C(NC(=O)Cc2ccc3[nH]cc(CCC(=O)O)c3c2)c2ccccc2)c(F)c1 (centres unmarked) [Cpd. 17]; > 10000 nM
Cc1ccc(C(NC(=O)Cc2ccc3[nH]cc(CCC(=O)O)c3c2)c2ccccc2)c(N2CCCC2)n1 (centres unmarked) [Cpd. 15]; 1000 to 10000 nM
O=C(O)CCc1c[nH]c2ccc(CC(=O)NC(c3ccccc3)c3ccccc3N3CCCCC3)cc12 (centres unmarked) [Cpd. 1]; < 1000 nM

Query: Consider the compound Cc1ccc(C(NC(=O)Cc2ccc3[nH]cc(CCC(=O)O)c3c2)c2cccnc2)c(C)c1 (centres unmarked) [compound 27] and give its recorded IC50.
Result: > 10000 nM

Query: Consider the compound Cc1ccc(C(NC(=O)Cc2ccc3[nH]cc(CCC(=O)O)c3c2)c2ccccc2)c(Cl)c1 (centres unmarked) [Cpd. 7] and give its recorded IC50.
Result: 1000 to 10000 nM

Query: Consider the compound Cc1ccc(F)c(C(NC(=O)Cc2ccc3[nH]cc(CCC(=O)O)c3c2)c2ccccc2)c1 (centres unmarked) [Cpd. 19] and give its recorded IC50.
Result: > 10000 nM

Query: Consider the compound Cc1ccc(C(NC(=O)Cc2ccc3[nH]cc(CCC(=O)O)c3c2)c2ccccc2)c2ncccc12 (centres unmarked) [compound 31] and give its recorded IC50.
Result: > 10000 nM

Query: Consider the compound Cc1ccc(C(NC(=O)Cc2ccc3[nH]cc(CCC(=O)O)c3c2)c2ccccc2)c2ccccc12 (centres unmarked) [compound 37] and give its recorded IC50.
Result: 1000 to 10000 nM

Query: Consider the compound Cc1ccc(C(NC(=O)Cc2ccc3[nH]cc(CCC(=O)O)c3c2)c2ccccc2)c(Br)c1 (centres unmarked) [Cpd. 9] and give its recorded IC50.
Result: 1000 to 10000 nM

Query: Consider the compound O=C(O)Cc1c[nH]c2ccc(CC(=O)NC(c3ccccc3)c3ccccc3N3CCCCC3)cc12 (centres unmarked) [Cpd. 39] and give its recorded IC50.
Result: 1000 to 10000 nM

Query: Consider the compound O=C(O)CCc1c[nH]c2ccc(CC(=O)NC(c3ccccc3)c3ccccc3N3CCCCCC3)cc12 (centres unmarked) [compound 35] and give its recorded IC50.
Result: < 1000 nM

Query: Consider the compound O=C(O)CCc1c[nH]c2ccc(CC(=O)NC(c3cccc(F)c3)c3ccccc3N3CCCCC3)cc12 (centres unmarked) [Cpd. 3] and give its recorded IC50.
Result: < 1000 nM

Query: Consider the compound Cc1ccc(C(NC(=O)Cc2ccc3[nH]cc(CCC(=O)O)c3c2)c2ccccc2)c(N2CCCC2)c1 (centres unmarked) [Cpd. 5] and give its recorded IC50.
Result: < 1000 nM

Query: Consider the compound Cc1ccc(C(NC(=O)Cc2ccc3[nH]cc(CCC(=O)O)c3c2)c2ccccn2)c(C)c1 (centres unmarked) [Cpd. 21] and give its recorded IC50.
Result: > 10000 nM

Query: Consider the compound Cc1cc(Cl)ccc1C(NC(=O)Cc1ccc2[nH]cc(CCC(=O)O)c2c1)c1ccccc1 (centres unmarked) [compound 33] and give its recorded IC50.
Result: 1000 to 10000 nM
